For each entry below, report its Ki value.
- Target Of Assay: Protein kinase C beta type (Homo sapiens, UniProt P05771)
- Sequence (P05771 whole entry, the tested form may be a part): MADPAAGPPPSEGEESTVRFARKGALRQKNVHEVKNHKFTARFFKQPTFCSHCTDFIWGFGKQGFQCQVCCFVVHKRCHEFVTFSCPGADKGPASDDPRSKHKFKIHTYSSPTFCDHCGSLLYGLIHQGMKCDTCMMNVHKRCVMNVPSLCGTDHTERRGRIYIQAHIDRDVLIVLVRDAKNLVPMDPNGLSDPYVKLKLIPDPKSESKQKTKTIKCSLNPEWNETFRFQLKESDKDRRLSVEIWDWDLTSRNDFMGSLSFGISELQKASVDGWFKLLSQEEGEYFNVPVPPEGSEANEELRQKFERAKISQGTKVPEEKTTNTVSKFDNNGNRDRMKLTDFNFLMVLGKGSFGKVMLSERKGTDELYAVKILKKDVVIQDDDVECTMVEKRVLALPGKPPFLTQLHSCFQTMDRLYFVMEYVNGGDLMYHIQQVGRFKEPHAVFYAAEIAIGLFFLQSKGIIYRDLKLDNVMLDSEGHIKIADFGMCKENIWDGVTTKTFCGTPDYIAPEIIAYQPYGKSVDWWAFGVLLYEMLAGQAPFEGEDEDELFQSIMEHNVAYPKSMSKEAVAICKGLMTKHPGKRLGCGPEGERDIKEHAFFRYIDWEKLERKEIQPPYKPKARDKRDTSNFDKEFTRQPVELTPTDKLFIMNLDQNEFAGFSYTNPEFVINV
- Procedure Summary: Displacement of [3H]PDBu from PKCbeta C1B domain

**Q:** Consider the compound `CC(C)[C@H]1C(=O)N[C@H](CO)Cc2cn3ncc4ccc(c2c43)N1C` . State its measured Ki.
**A:** 5.96 µM

**Q:** Consider the compound `Cc1nn2cc3c4c(ccc1c42)N(C)[C@@H](C(C)C)C(=O)N[C@H](CO)C3` . State its measured Ki.
**A:** > 10 µM

**Q:** Consider the compound CC(C)[C@H]1C(=O)N[C@H](CO)Cc2c[nH]c3cccc(c23)N1C [INDOLACTUM] . State its measured Ki.
**A:** 4 µM

**Q:** Consider the compound `CC(C)[C@H]1C(=O)N[C@H](CO)Cc2cn3nc(C(F)(F)F)c4ccc(c2c43)N1C` . State its measured Ki.
**A:** 9.38 µM

====

For each entry below, report its Ki value.
- Target Of Assay: UniProt P05771
- Procedure Summary: Displacement of [3H]PDBu from PKCbeta C1A domain
API: value field is a number in µM; no unit string.

**Q:** Tell me its Ki on UniProt P05771: `Cc1nn2cc3c4c(ccc1c42)N(C)[C@@H](C(C)C)C(=O)N[C@H](CO)C3`
**A:** 1.1

**Q:** Tell me its Ki on UniProt P05771: `CC(C)[C@H]1C(=O)N[C@H](CO)Cc2cn3ncc4ccc(c2c43)N1C`
**A:** 0.088

**Q:** Tell me its Ki on UniProt P05771: `CC(C)[C@H]1C(=O)N[C@H](CO)Cc2cn3nc(C(F)(F)F)c4ccc(c2c43)N1C`
**A:** 0.127

====

- Target Of Assay: Protein kinase C gamma type (Homo sapiens, UniProt P05129)
- Procedure Summary: Displacement of [3H]PDBu from PKCgamma C1A domain
Assay Metric: pKi
Remember the convention: pKi equals -log10 of concentration in molar.

**Q:** Consider the compound `CC(C)[C@H]1C(=O)N[C@H](CO)Cc2cn3ncc4ccc(c2c43)N1C` . State its measured pKi.
**A:** 7.21

**Q:** Consider the compound `Cc1nn2cc3c4c(ccc1c42)N(C)[C@@H](C(C)C)C(=O)N[C@H](CO)C3` . State its measured pKi.
**A:** 5.82

**Q:** Consider the compound `CC(C)[C@H]1C(=O)N[C@H](CO)Cc2cn3nc(C(F)(F)F)c4ccc(c2c43)N1C` . State its measured pKi.
**A:** 6.63

====

- Target Of Assay: Protein kinase C alpha type (Homo sapiens)
- Procedure Summary: Displacement of [3H]PDBu from PKCalpha C1B domain
Assay Metric: pKi
Remember the convention: pKi equals -log10 of concentration in molar.

**Q:** Consider the compound `CC(C)[C@H]1C(=O)N[C@H](CO)Cc2cn3nc(C(F)(F)F)c4ccc(c2c43)N1C` . State its measured pKi.
**A:** 6.14

**Q:** Consider the compound `Cc1nn2cc3c4c(ccc1c42)N(C)[C@@H](C(C)C)C(=O)N[C@H](CO)C3` . State its measured pKi.
**A:** 5.58

**Q:** Consider the compound `CC(C)[C@H]1C(=O)N[C@H](CO)Cc2cn3ncc4ccc(c2c43)N1C` . State its measured pKi.
**A:** 6.45

**Q:** Consider the compound `CC(C)[C@H]1C(=O)N[C@H](CO)Cc2c[nH]c3cccc(c23)N1C` . State its measured pKi.
**A:** 6.85
